- Test system: Micrococcus luteus
- protocol: Antibacterial activity against Micrococcus luteus AGD1
- Type: functional
Entries annotated with measured MIC
outcome_measure: MIC

>>> data_value("CCOC(=O)c1cc2ccccn2c1C(=O)c1ccccc1")
"> 500 mg/L"
>>> data_value("CC1(C)S[C@@H]2[C@H](NC(=O)[C@H](N)c3ccc(O)cc3)C(=O)N2[C@H]1C(=O)O")
"0.5 mg/L"
>>> data_value("CCOC(=O)c1cc2ccc3ccccc3n2c1C(=O)c1ccccc1")
"> 500 mg/L"
>>> data_value("N#Cc1cc(C(=O)c2ccccc2)n2ccc3ccccc3c12")
"> 500 mg/L"
>>> data_value("COC(=O)c1c(C(=O)OC)c2ccccn2c1C(=O)c1ccccc1")
"> 500 mg/L"
